# assay_remarks: Stability in human plasma assessed as half life at 120 mins by LC-MS/MS analysis
# Assay type: ADME, cell-free
endpoint_label: half-life

Consider the reported half-life for these molecules:
half-life measured on `CCNC(=O)c1noc(-c2cc(-c3ccc(C)cc3)c(O)cc2O)c1-c1ccc(CN2CCCCC2)cc1` = > 4.8 h

half-life measured on `CNC(=O)c1noc(-c2cc(-c3ccc(C)cc3)c(O)cc2O)c1-c1ccc(CN2CCCCC2)cc1` = 2.18 h

half-life measured on `CNC(=O)c1noc(-c2cc(-c3ccc(C)cc3)c(O)cc2O)c1-c1ccc(CN2CCOCC2)cc1` = > 4.8 h

Next item in the queue.
half-life measured on `CCNC(=O)c1noc(-c2cc(-c3ccc(C)cc3)c(O)cc2O)c1-c1ccc(CN2CCOCC2)cc1` = > 4.8 h

----------
# assay_remarks: Metabolic stability in human liver microsomes assessed as half life in presence of NADPH cofactor under shaking condition for 10 mins measured after 5 to 60 mins by LC-MS/MS analysis
# Assay type: ADME, Microsome
# recorded_conditions: time 15-70 min
# binarize half-life: threshold 20 min inclusive, high side Satisfied, low side Not satisfied

Query block: # check: half-life of `CCNC(=O)c1noc(-c2cc(-c3cccc(CC)c3)c(O)cc2O)c1-c1ccc(CN2CCOCC2)cc1` is greater than or equal to 20 min
Result block: Not satisfied

Query block: # check: half-life of `CNC(=O)c1noc(-c2cc(-c3ccc(C)cc3)c(O)cc2O)c1-c1ccc(CN2CCOCC2)cc1` is greater than or equal to 20 min
Result block: Satisfied

Query block: # check: half-life of `CCNC(=O)c1noc(-c2cc(-c3ccc(C)cc3)c(O)cc2O)c1-c1ccc(CN2CCOCC2)cc1` is greater than or equal to 20 min
Result block: Satisfied

Query block: # check: half-life of `CCNC(=O)c1noc(-c2cc(-c3cccc(Cl)c3)c(O)cc2O)c1-c1ccc(CN2CCOCC2)cc1` is greater than or equal to 20 min
Result block: Not satisfied

Query block: # check: half-life of `CCNC(=O)c1noc(-c2cc(-c3ccc(C)cc3)c(O)cc2O)c1-c1ccc(CN2CCCCC2)cc1` is greater than or equal to 20 min
Result block: Satisfied

Query block: # check: half-life of `CNC(=O)c1noc(-c2cc(-c3ccc(C)cc3)c(O)cc2O)c1-c1ccc(CN2CCCCC2)cc1` is greater than or equal to 20 min
Result block: Satisfied

Query block: # check: half-life of `CCNC(=O)c1noc(-c2cc(-c3cccc(C(C)C)c3)c(O)cc2O)c1-c1ccc(CN2CCOCC2)cc1` is greater than or equal to 20 min
Result block: Not satisfied

----------
# assay_remarks: Metabolic stability in rat liver microsomes assessed as half life in presence of NADPH cofactor under shaking condition for 10 mins measured after 5 to 60 mins by LC-MS/MS analysis
# Format: ADME, Microsome
# recorded_conditions: time 15-70 min
endpoint_label: half-life (min)
One number for each entry, in min.

half-life measured on `CCNC(=O)c1noc(-c2cc(-c3ccc(C)cc3)c(O)cc2O)c1-c1ccc(CN2CCOCC2)cc1` = 30.6

----------
# assay_remarks: Stability in human plasma assessed as compound remaining at 120 mins by LC-MS/MS analysis
# Format: ADME, cell-free
# recorded_conditions: read-out: Stability
endpoint_label: remaining at 2 h (%)
Numbers only, in %.

Consider the reported remaining at 2 h for these molecules:
remaining at 2 h measured on `CCNC(=O)c1noc(-c2cc(-c3ccc(C)cc3)c(O)cc2O)c1-c1ccc(CN2CCCCC2)cc1` = 90.6

remaining at 2 h measured on `CCNC(=O)c1noc(-c2cc(-c3ccc(C)cc3)c(O)cc2O)c1-c1ccc(CN2CCOCC2)cc1` = 110

remaining at 2 h measured on `CNC(=O)c1noc(-c2cc(-c3ccc(C)cc3)c(O)cc2O)c1-c1ccc(CN2CCOCC2)cc1` = 92.8

Next item in the queue.
remaining at 2 h measured on `CNC(=O)c1noc(-c2cc(-c3ccc(C)cc3)c(O)cc2O)c1-c1ccc(CN2CCCCC2)cc1` = 55.2

These measurements were taken from ChEMBL document CHEMBL5154804.
